- target.of.assay: T1, Latent Activin A (human, UniProt P08476 21-426, limits assumed)
- T1 construct: also called INHBA latent
- T1 sequence: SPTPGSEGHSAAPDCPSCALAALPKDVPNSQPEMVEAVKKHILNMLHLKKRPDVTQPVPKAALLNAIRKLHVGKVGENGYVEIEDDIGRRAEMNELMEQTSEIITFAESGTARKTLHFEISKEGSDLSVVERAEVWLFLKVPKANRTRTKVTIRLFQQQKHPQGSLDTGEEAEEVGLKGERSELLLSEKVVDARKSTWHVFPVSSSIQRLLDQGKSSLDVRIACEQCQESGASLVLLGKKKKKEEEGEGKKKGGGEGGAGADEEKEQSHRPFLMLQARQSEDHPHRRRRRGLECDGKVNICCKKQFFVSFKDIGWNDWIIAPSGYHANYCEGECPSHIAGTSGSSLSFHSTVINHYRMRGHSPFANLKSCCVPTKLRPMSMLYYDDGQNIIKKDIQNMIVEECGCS
- experiment: ELISA dose-response, coated antigen
// EC50 lookup, one value per entry
Please reply with the bare figure in nM and do not write the unit itself.

binder | EC50, nM
AB843 (antibody, IgG1, V domains shown) VH: EVQLVQSGAEVKKPGASVKVSCKASGDTSSHSHIHWVRQAPGQGLEWMGWINPRSGATNYAQKLQGRGTMTTDPSTSTAYMELRSLRSDDTAVYYCARDRGGRTNGVGAFDIWGQGTMVTVSS VL: ESALTQPASVSGSPGQSITISCTGTSGDIGRYNYVSWYQQHPGKAPKLMIYEDIERPSGVSNRFSGSKSGNTASLTISGLQAEDEADYYCQVWDATLDLVFGGGTKLTVL | 0.04
AB347 (antibody, IgG1, V domains shown) VH: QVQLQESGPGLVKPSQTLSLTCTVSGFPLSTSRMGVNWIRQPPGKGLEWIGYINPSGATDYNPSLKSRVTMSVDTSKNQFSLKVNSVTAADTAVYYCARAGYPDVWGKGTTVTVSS VL: EIVMTQSPATLSLSPGERATLSCRASQNIGHSLAWYQQKPGQAPRLLIYGASIRAPGIPARFSGSGSGTDFTLTISSLEPEDFAVYYCQQYITWPSTFGGGTKVEIK | 2.46

Next binder, please.
Exercise: Given the entry AB854 (antibody, IgG1, V domains shown, also called clone 854) VH: EVQLVQSGAEVKKPGASVKVSCKASGYTFPSHYISWVRQAPGQGLEWMGGMNPITGHTIYAQKLQGRGTMTTDPSTSTAYMELRSLRSDDTAVYYCARDMRYDILPGRSYYYGMDVWGQGTTVTVSS VL: ESALTQPASVSGSPGQSITISCTGTTGSIASNYVSWYQQHPGKAPKLMIYDTTNRPPGVSNRFSGSKSGNTASLTISGLQAEDEADYYCQSTERGRSDVIFGGGTKLTVL , report its measured EC50.
Key: 1

These data points were gathered from patent US20250270304A1.
